target: UniProtKB Q96LB2; assay: Intracellular Ca2+ (FLIPR) assay in CHO-hMRG-X1-NFAT/Bla cells; assay type: cell-based; conditions: IC50 FLIPR, inhibition of BAM15-induced i[Ca2+] response
Sequence (Q96LB2 whole entry): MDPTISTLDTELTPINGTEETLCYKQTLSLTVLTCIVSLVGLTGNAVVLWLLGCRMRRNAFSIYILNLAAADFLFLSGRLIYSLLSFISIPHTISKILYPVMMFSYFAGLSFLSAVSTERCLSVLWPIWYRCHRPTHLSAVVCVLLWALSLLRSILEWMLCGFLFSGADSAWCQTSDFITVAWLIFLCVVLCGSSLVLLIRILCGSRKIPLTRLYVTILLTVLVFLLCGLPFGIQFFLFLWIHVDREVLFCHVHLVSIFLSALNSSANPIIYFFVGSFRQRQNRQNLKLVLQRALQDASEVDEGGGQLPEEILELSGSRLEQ
Experimental Endpoint: pIC50
Schema: pIC50 number; meaning minus log10 of the concentration expressed in molar units.

stdin: Give the value of pIC50 reported for the following: O=C(Nc1cccc2ccccc12)OC1C2CCN(CC2)C1C(c1ccccc1)c1ccccc1 (stereo not drawn) [Compound 5]
stdout: 6.04

stdin: Give the value of pIC50 reported for the following: O=C(OC1C2CCN(CC2)C1C(c1ccccc1)c1ccccc1)c1ccccc1C(F)(F)F (stereo not drawn) [Compound 12]
stdout: 5.48

stdin: Give the value of pIC50 reported for the following: O=C(Nc1cccc([N+](=O)[O-])c1)OC1C2CCN(CC2)C1C(c1ccccc1)c1ccccc1 (stereo not drawn) [Compound 13]
stdout: 5.89

stdin: Give the value of pIC50 reported for the following: O=C(Nc1ccccc1Cl)OC1C2CCN(CC2)C1C(c1ccccc1)c1ccccc1 (stereo not drawn) [Compound 14]
stdout: 5.57

stdin: Give the value of pIC50 reported for the following: COc1ccc(C(=O)OC2C3CCN(CC3)C2C(c2ccccc2)c2ccccc2)cc1OC (stereo not drawn) [Compound 2]
stdout: 6.80

stdin: Give the value of pIC50 reported for the following: O=C(Nc1ccccc1Cl)OC1C2CCN(CC2)C1C(c1ccccc1)c1ccccc1 (stereo not drawn) [Compound 6]
stdout: 6.12
